biological target: L-type voltage-dependent Ca2+ channel (Homo sapiens, UniProt O60840+Q01668+Q13698+Q13936); assay: Inhibition of L-type voltage-dependent Ca2+ channel at 1 uM
readout type: inhibition at 1 µM (%)

Here are 6 molecules together with their reported answers.
COC(=O)C1=C(C)NC(C)=C(C(=O)OC)C1c1ccc(C(C)(C)C)cc1 ... 20.9
CCOc1ccc(C2C(C(=O)OC)=C(C)NC(C)=C2C(=O)OC)cc1 ... 14.6
C=CCOC(=O)C1=C(C)NC(C)=C(C(=O)OCC=C)C1c1ccc(C(C)C)cc1 ... 64
COc1ccc(C(=O)OC2C(C(=O)OCc3ccccc3)=C(C)NC(C)=C2C(=O)OCc2ccccc2)cc1OC ... 23.3
CCOC(=O)C1=C(C)NC(C)=C(C(=O)OCC)C1c1cccc(Oc2ccccc2)c1 ... 43.2
COC(=O)C1=C(C)NC(C)=C(C(=O)OC)C1c1cccc(Br)c1 ... 100

a: CCOC(=O)C1=C(C)NC(C)=C(C(=O)OC)C1c1ccc(Cl)cc1 (stereo not drawn)
b: CCOC(=O)C1=C(C)NC(C)=C(C(=O)OCC)C1c1ccc(N(CC)CC)cc1
Query: Recorded inhibition at 1 µM values differ for a and b ; which one is higher? Response format: the label of the selected entry.
Response: a
(a: 100%, b: 34.7%)
